Test system: DLD-1 colon
ASSAY_EXPLANATION: NCI tumour cell line growth inhibition, 48 h
OUTCOME_MEASURE: TGI

MOLECULE: CN(C)c1ccc(/C=C(\NC(=O)c2ccccc2)c2nc3ccc4c(c3[nH]2)C(=O)c2ccccc2C4=O)cc1
TESTED_SYSTEM: DLD-1 colon
OUTCOME_MEASURE: TGI
RESULT_VALUE: 55.7 µM

MOLECULE: COc1ccccc1-c1cc(=O)c2cc(C)c(C)c(C(=O)O)c2o1
TESTED_SYSTEM: DLD-1 colon
OUTCOME_MEASURE: TGI
RESULT_VALUE: > 100 µM

MOLECULE: c1cc2c3c(c1)c1cc4c(cc1c[n+]3CC2)OCO4
TESTED_SYSTEM: DLD-1 colon
OUTCOME_MEASURE: TGI
RESULT_VALUE: 121 µM

MOLECULE: OC1=CN=COc2ccccc21
TESTED_SYSTEM: DLD-1 colon
OUTCOME_MEASURE: TGI
RESULT_VALUE: > 100 µM

MOLECULE: CC(=O)c1ccc(NC(=O)C(=O)C(C(=O)/C=C/c2ccccc2)C2OC(=O)c3ccccc32)cc1 (centres undefined)
TESTED_SYSTEM: DLD-1 colon
OUTCOME_MEASURE: TGI
RESULT_VALUE: > 100 µM

MOLECULE: COc1cc2c(c3c1c(=O)c1ccccc1n3C)C=CC(C)(C)O2
TESTED_SYSTEM: DLD-1 colon
OUTCOME_MEASURE: TGI
RESULT_VALUE: > 100 µM

MOLECULE: C#CCN(N=O)C(=O)ON1C(=O)CCC1=O
TESTED_SYSTEM: DLD-1 colon
OUTCOME_MEASURE: TGI
RESULT_VALUE: > 100 µM

MOLECULE: COc1cccc(-c2cc(=O)c3cc4c(cc3[nH]2)OCO4)c1
TESTED_SYSTEM: DLD-1 colon
OUTCOME_MEASURE: TGI
RESULT_VALUE: > 100 µM

MOLECULE: O=c1cc(-c2ccccc2)[nH]c2cc(F)cc(F)c12
TESTED_SYSTEM: DLD-1 colon
OUTCOME_MEASURE: TGI
RESULT_VALUE: > 100 µM

###

Test system: SK-OV-3 ovarian
ASSAY_EXPLANATION: NCI tumour cell line growth inhibition, 48 h
OUTCOME_MEASURE: log10 of TGI (log10 of the value in µM)

COMPOUND: O=C(/C=C1\Sc2ccccc2N=C1CC(=O)c1ccccc1)c1ccccc1
log10 of TGI: 1.86
//
COMPOUND: Oc1[nH]c2ccccc2c1C1=Nc2ccccc2/C1=N\OCCOC1OCC(O)C(O)C1O (stereo unspecified)
log10 of TGI: 0.90
//
COMPOUND: O=C(c1ccc2ccccc2c1)c1nc2cc(F)ccc2[n+]([O-])c1C(F)(F)F
log10 of TGI: 1.53
//
COMPOUND: O=C(CC1(O)C(=O)Nc2ccc(F)cc21)c1ccc(C(=O)NCC2CCC3(CC2)OOC2(CCCCC2)OO3)cc1 (stereo unspecified)
log10 of TGI: 1.50
//
COMPOUND: Cc1cc(NCc2cc(Nc3ccnc4cc(Cl)ccc34)ccc2F)nc(N2CCOCC2)n1
log10 of TGI: 0.53
//
COMPOUND: CCCc1nc(Cl)nc(Cl)c1Cl
log10 of TGI: 0.84
//
COMPOUND: Nc1ccccc1C#CC(=O)c1cccc(C(F)(F)F)c1
log10 of TGI: 1.46
//
COMPOUND: CCc1ccc2[nH]c(O)c(C3=Nc4ccccc4C3=O)c2c1
log10 of TGI: 1.62
//
COMPOUND: C=C(CN1CCc2c([nH]c3ccccc23)C1)c1ccc(C(=O)Nc2ccccc2N)cc1
log10 of TGI: 1.06
//
COMPOUND: CC(C)(C)NCC(O)COc1c(Br)c(Br)c(Br)c2c1OC(C)(C)C2 (stereo unspecified)
log10 of TGI: 0.52

###

System: SW-620 colon
ASSAY_EXPLANATION: NCI tumour cell line growth inhibition, 48 h; in the data active means GI50 below about 0.43 µM; inactive means the rest
Outcome codes: class 1 for active, class 0 for inactive

COMPOUND: CN(C)CCCOc1cccc(NC2=C(Cl)C(=O)C(Nc3cccc(OCCCN(C)C)c3)=C(Cl)C2=O)c1
CLASS: class 1
--
COMPOUND: COc1cc(C2=NN(C(C)=O)C(c3cc(OC)c(OC)c(OC)c3)C2)ccc1O (stereo not drawn)
CLASS: class 1
--
COMPOUND: CC(C)(C)[Si](C)(C)OC1[C@@H](CNC(N)=O)O[C@@H](n2cnc3c(NC(=O)Nc4ccccc4)ncnc32)[C@H]1O[Si](C)(C)C(C)(C)C (stereo partly drawn)
CLASS: class 0
--
COMPOUND: Clc1ccc(/C=C/c2ccc3ccccc3n2)cc1
CLASS: class 0
--
COMPOUND: CCOC(=O)c1ccc(NC(=O)NC2=NCCS2)cc1
CLASS: class 0
--
COMPOUND: COc1cc(F)ccc1-c1cc(Nc2cc(CS(C)(=N)=O)ccn2)ncc1F (stereo not drawn)
CLASS: class 1
--
COMPOUND: CCSc1ccc([C@@H]2[C@@H](O)C(=O)N2c2cc(OC)c(OC)c(OC)c2)cc1
CLASS: class 1
--
COMPOUND: C=C(CN1CCc2c([nH]c3ccccc23)C1)c1ccc(C(=O)Nc2ccccc2N)cc1
CLASS: class 0
--
COMPOUND: C=C1C(=O)O[C@H]2[C@H]1CC/C(Cn1cc(-c3ccc(N)cc3)nn1)=C\CC[C@@]1(C)O[C@@H]21
CLASS: class 0
--
COMPOUND: CCCCCCNCCCNc1c2cc(OC)ccc2nc2cccc([N+](=O)[O-])c12
CLASS: class 1
--
COMPOUND: COc1ccc(-c2c(C#N)c(N)nc(N3CCOCC3)c2C#N)cc1
CLASS: class 0
--
COMPOUND: COc1ccc(C(=O)c2sc3nc(-c4ccccc4OC)ccc3c2N)cc1OC
CLASS: class 0
--
COMPOUND: CCN1[C@@H](C(=O)NC23CCC(C(=O)O)(CC2)CC3)[C@H](c2cccc(Cl)c2F)[C@]2(C(=O)Nc3cc(Cl)ccc32)C12CCCCC2
CLASS: class 0

###

Tested on: NCI-H522 lung
ASSAY_EXPLANATION: NCI tumour cell line growth inhibition, 48 h; in the data active = GI50 below about 0.43 µM; inactive = the rest
Outcome codes: active, inactive

COMPOUND: Cc1cc(CCl)c(C)cc1CCl
CLASS: inactive

COMPOUND: O=C(Nc1cccc2[nH]c(C(F)(F)F)nc12)c1cc(Cl)ccc1Cl
CLASS: inactive

COMPOUND: COc1cc(OC)c2sc(-c3ccc(-n4cncc4-c4ccc(OC)c(OC)c4)cc3)nc2c1
CLASS: inactive

COMPOUND: COc1ccc(-c2nc(-c3nc4cc(Cl)c(F)cc4[nH]3)c3ccccn23)cc1
CLASS: inactive

COMPOUND: Cn1c(=O)n(C)c2cc(CNCCNc3ccnc4cc(Cl)ccc34)ccc21
CLASS: inactive

COMPOUND: CN(Cc1ccc(F)cc1)c1ccc(CO)c(Cl)c1
CLASS: inactive

COMPOUND: COc1ccc(C2=NC(=O)NC2c2ccc(OC)cc2)cc1 (stereo unspecified)
CLASS: inactive

COMPOUND: Clc1ccc(/C=C/c2ccc3ccccc3n2)cc1
CLASS: active

COMPOUND: COc1ccc(-c2c(C#N)c(N)nc(N3CCOCC3)c2C#N)cc1
CLASS: inactive

COMPOUND: CCCN(CCC)c1ccc(C=O)c(Cl)c1
CLASS: inactive

COMPOUND: O=C(NN1C(=O)CSC1c1cccc(Cl)c1)C(O)c1ccccc1 (stereo unspecified)
CLASS: inactive

###

Each entry below lists one item and its recorded GI50 value.
Test system: BT-549 breast
ASSAY_EXPLANATION: NCI tumour cell line growth inhibition, 48 h
OUTCOME_MEASURE: GI50

COMPOUND: ClCc1cccc(Cn2cnc3c(Cl)nc(Cl)nc32)c1
RESULT_VALUE: 1.69 µM

COMPOUND: CC(NC(=O)Cc1ccc(C(F)(F)P(=O)(OCc2ccc([N+](=O)[O-])o2)N(C)CCCCCl)cc1)c1ccc(OCC2CCCCC2)c(C(N)=O)c1 (stereo not drawn)
RESULT_VALUE: 5.27 µM

COMPOUND: COc1ccc(C(=O)c2sc3nc(-c4ccccc4OC)ccc3c2N)cc1OC
RESULT_VALUE: 3.14 µM

COMPOUND: Cn1cc(-c2cc(-c3cn(C)c4ccc(Cl)cc34)[nH]n2)c2cc(Cl)ccc21
RESULT_VALUE: 2.03 µM

COMPOUND: Nc1c(C(=O)c2cccc(C#CCN3CCCCC3)c2)cnn1-c1ccc(F)cc1
RESULT_VALUE: > 13.3 µM

COMPOUND: c1ccc(-c2nc3n(c2-c2ccc4c(c2)OCO4)CCC3)nc1
RESULT_VALUE: 10 µM

COMPOUND: N=C(N)c1ccc(-c2ccc(-c3ccc(Cl)c(Cl)c3)s2)cc1
RESULT_VALUE: 6.39 µM

COMPOUND: NC(=O)c1cccnc1
RESULT_VALUE: > 100 µM
